system: Wolbachia pipientis; test: Anti-Wolbachia Cell-Based Screen; assay type: functional; parameters: scale not given: in the data most compounds retested in dose-response had high values; conditions: 5 µM
The whole screen tested about 48,000 compounds, of which about 13,000 (27%) showed an effect of 50% or more. Some of the results follow.
Each item that follows carries a reported Percent Effect.

{"compound": "NC(=O)CCCNC(=O)c1cc(Br)c2c(c1)OCCO2", "Percent Effect / %": -9.821}
{"compound": "CCOCC1CN(c2ncc(F)cn2)Cc2cn(CC)nc21 (stereo not drawn)", "Percent Effect / %": -1.494}
{"compound": "O=C(NCCNS(=O)(=O)c1ccc2c(c1)CCC2)c1ccccc1", "Percent Effect / %": 4.416}
{"compound": "Cc1cccc(CCNC(=O)CCS(=O)(=O)C2CCCC2)c1", "Percent Effect / %": 1.788}
{"compound": "O=C(Cc1ccc(F)cc1)NCCNS(=O)(=O)c1ccc(F)c(F)c1", "Percent Effect / %": -6.551}
{"compound": "CC(=O)N1CCOCC2(C1)CN(S(C)(=O)=O)CCO2 (stereo not drawn)", "Percent Effect / %": -9.255}
{"compound": "CN1CC[C@H]2CN(C(=O)c3csc(Cc4ccccc4)n3)C[C@H]21", "Percent Effect / %": 0.1576}
{"compound": "Cc1oc(C)c(C(=O)NS(=O)(=O)c2ccc3c(c2)OCCO3)c1Br", "Percent Effect / %": 78.36}
{"compound": "CC(=O)c1cccc(OCCCC(=O)NCC2CCCN2C)c1 (stereo not drawn)", "Percent Effect / %": -10.21}
{"compound": "O=C(Cc1ccc(F)cc1)NCCc1ccoc1", "Percent Effect / %": 13.31}
{"compound": "CC(CCNC(=O)N1CCC1)N(C)C(=O)OC(C)(C)C (stereo not drawn)", "Percent Effect / %": -2.382}
{"compound": "CCNC(=O)N1C[C@@H]2OCC(=O)N(Cc3cccnc3)[C@@H]2C1", "Percent Effect / %": -2.175}
{"compound": "O=C(Cc1ccccc1)NCCNS(=O)(=O)C1CCCCC1", "Percent Effect / %": 110.7}
{"compound": "CC(C)OCCCNC(=O)[C@@]12CNC[C@@H]1CN(S(C)(=O)=O)C2", "Percent Effect / %": 4.002}
{"compound": "O=C(CCCN1CCCCC1)N1CCN(C(=O)c2ccc[nH]2)CC1", "Percent Effect / %": 1.236}
{"compound": "CC(NCC1=Cc2cc(Cl)ccc2OC1)c1nnc2n1CCCC2 (stereo not drawn)", "Percent Effect / %": 8.386}
{"compound": "CCS(=O)(=O)CC(C)NC(=O)N(C)Cc1cc(Cl)cn1C (stereo not drawn)", "Percent Effect / %": -1.914}
{"compound": "Cc1c[nH]nc1C1CCN(S(=O)(=O)N(C)C)CC1", "Percent Effect / %": -12.28}
{"compound": "COc1ccc(OC)c(C2CCN(C(=O)C3CCOCC3)C2)c1 (stereo not drawn)", "Percent Effect / %": 3.237}
{"compound": "Cc1oc(C)c(C(=O)NS(=O)(=O)c2ccc3c(c2)OCCCO3)c1C", "Percent Effect / %": 0.6682}
{"compound": "CCS(=O)(=O)NCCNC(=O)c1cnc(-c2ccccc2)nc1", "Percent Effect / %": 1.605}
{"compound": "O=C(NS(=O)(=O)c1ccc2c(c1)OCCO2)c1ccc(Br)cc1F", "Percent Effect / %": -2.402}
{"compound": "CCc1ccc2c(c1)C(CCNC(=O)Cc1cccc(F)c1)C(=O)N2 (stereo not drawn)", "Percent Effect / %": 1.678}
